Test details: Inhibition of trypsin-like activity of 20S proteasome in human K562 cells using Z-LRRaminoluciferin as substrate after 2 hrs by luminescence assay
Measurement label: IC50

Challenge: State, in one line, measured IC50 of CC(C)C[C@H](NC(=O)[C@H](Cc1ccccc1)NC(=O)N1C/C(=C\c2ccc(F)cc2)C(=O)/C(=C/c2ccc(F)cc2)C1)B(O)O
Response given: > 100 µM

====

Test details: Inhibition of PGPH activity of 20S proteasome in human K562 cells using Z-nLPnLDaminoluciferin as substrate after 2 hrs by luminescence assay
Measurement label: IC50

Challenge: State, in one line, measured IC50 of CC(C)C[C@H](NC(=O)[C@H](Cc1ccccc1)NC(=O)N1C/C(=C\c2ccc(F)cc2)C(=O)/C(=C/c2ccc(F)cc2)C1)B(O)O
Response given: > 100 µM
